system: human PMNs; assay: IL-8 induced human PMN chemotaxis assay; format: cell-based; details: c = 10^−8 M; human PMNs chemotaxis induced by IL-8 (100 ng/mL)
Structures can show the parent of a compound that is named as a salt.
What inhibition at 0.01 µM was measured for each of the following?
State the value with its unit after it.

[[record]]
compound = "CC(C)Cc1ccc([C@H](C)S(=O)(=O)O)cc1 [Compound 2, sodium salt]"
reported_result = "35%"

[[record]]
compound = "CC(C)Cc1ccc(/C=C/S(=O)(=O)O)cc1 [Compound 10, sodium salt]"
reported_result = "45%"


Fill in inhibition at 0.01 µM for each of the 2 compounds listed.
1. CC(C)Cc1ccc(/C=C/S(=O)(=O)NCCCN(C)C)cc1 [Compound 18]
2. C/C(=C\S(N)(=O)=O)c1ccc(CC(C)C)cc1 [Compound 50]

40%
32%

Fill in inhibition at 0.01 µM for each of the 7 compounds listed.
1. CC(C)Cc1ccc([C@@H](C)S(=O)(=O)O)cc1 [Compound 1, sodium salt]
2. CC(C)C(=O)c1ccc(CS(N)(=O)=O)n1C [Compound 30]
3. CC(C)Cc1ccc(/C=C/S(N)(=O)=O)cc1 [Compound 14, E-2-(4-isobutylphenyl) ethenesulfonamide]
4. CC(c1cccc(C(=O)c2ccccc2)c1)S(=O)(=O)O (racemic) [Compound 8, sodium salt]
5. CC(=O)c1ccc(CS(N)(=O)=O)n1C [Compound 31]
6. CC(=O)c1ccc(CS(=O)(=O)O)n1C [Compound 7, sodium salt]
7. NS(=O)(=O)/C=C/c1cccc(C(=O)c2ccccc2)c1 [Compound 15, E-2-(3-benzoylphenyl) ethenesulfonamide]

1: 55%; 2: 50%; 3: 41%; 4: 65%; 5: 39%; 6: 35%; 7: 66%
